assay-explanation: Comparative pharmacokinetics of oxycodone in the cynomolgus monkey after oral administration
condition-summary: male, cynomolgus monkey, plasma, po, 1 mg oxycodone base equivalents/kg, Cmax of intact prodrug, male cynomolgus monkeys, oral prodrug, 1 mg oxycodone free base equivalents/kg; mean (n=5)

[
  {
    "compound": "COc1ccc2c3c1O[C@H]1C(OC(=O)CCC(=O)NC(C(=O)O)C(C)C)=CC[C@@]4(O)[C@@H](C2)N(C)CC[C@]314 (stereo in doubt)",
    "Cmax / ng/mL": 1.24
  }
]

---

assay-explanation: Plasma pharmacokinetics of meptazinol dicarboxylate linked prodrugs after oral gavage to cynomolgus monkeys
Type: in vivo, cynomolgus monkey
condition-summary: cynomolgus monkey; oral gavage of prodrug, 1 mg meptazinol base equivalents/kg; meptazinol level
Values of Monkey Cmax (plasma meptazinol) strictly less than 1 ng/mL map to MET, and values of at least 1 ng/mL map to NOT MET.

[
  {
    "compound": "CCC1(c2cccc(OC(=O)CCCC(=O)Nc3ccc(C(=O)O)cc3)c2)CCCCN(C)C1 (stereo not drawn) [Meptazinol [glutaryl-PABA] ester]",
    "group": "NOT MET"
  },
  {
    "compound": "CCC1(c2cccc(OC(=O)CC(C)(C)CC(=O)NCC(=O)O)c2)CCCCN(C)C1 (stereo not drawn)",
    "group": "NOT MET"
  },
  {
    "compound": "CCC1(c2cccc(OC(=O)CC(C)(C)CC(=O)Nc3ccc(C(=O)O)cc3)c2)CCCCN(C)C1 (stereo not drawn)",
    "group": "NOT MET"
  },
  {
    "compound": "CCC1(c2cccc(OC(=O)C=CC(=O)Nc3ccc(C(=O)O)cc3)c2)CCCCN(C)C1 (stereo not drawn) [Meptazinol [fumaryl-PABA] ester]",
    "group": "NOT MET"
  },
  {
    "compound": "CCC1(c2cccc(OC(=O)CCC(=O)N3CCC[C@H]3C(=O)O)c2)CCCCN(C)C1 (stereo partly drawn) [Meptazinol-[succinyl-(S)-proline] ester]",
    "group": "NOT MET"
  },
  {
    "compound": "CCC1(c2cccc(OC(=O)C(C)(C)CC(=O)N[C@H](C(=O)O)C(C)C)c2)CCCCN(C)C1 (stereo partly drawn)",
    "group": "MET"
  }
]

---

assay-explanation: Systemic availability of oxycodone after intranasal insufflation to dogs
condition-summary: male, beagle, dog, plasma, other: intranasal insufflation, 0.25 mg oxycodone free base equivalents/kg, t½ of intact prodrug, nominal […] equivalents, individual dogs
parameter-measured: half-life (min)

[
  {
    "compound": "COc1ccc2c3c1O[C@H]1C(OC(=O)CCC(=O)NC(C(=O)O)C(C)C)=CC[C@@]4(O)[C@@H](C2)N(C)CC[C@]314 (stereo in doubt)",
    "reported-measurement": 51
  }
]

---

Test system: gut motility in the rat
assay-explanation: Charcoal propulsion test of GI motility in the rat
Type: in vivo
condition-summary: oral, 100 mg/kg
parameter-measured: % change from vehicle-treated animals, small intestine

[
  {
    "compound": "COc1ccc2c3c1O[C@H]1C(=O)CC[C@@]4(O)[C@@H](C2)N(C)CC[C@]314 [Oxycodone, oxycodone, reference compound]",
    "reported-measurement": "−75.5%"
  },
  {
    "compound": "COc1ccc2c3c1O[C@H]1[C@@H](O)CC[C@H]4[C@@H](C2)N(C)CC[C@@]341.O=C(O)C(O)C(O)C(=O)O [Dihydrocodeine Hydrogen Tartrate, reference compound]",
    "reported-measurement": "−56.4%"
  },
  {
    "compound": "COc1ccc2c3c1O[C@H]1[C@@H](OC(=O)CCC(=O)NC(C(=O)O)C(C)C)CCC4[C@@H](C2)N(C)CC[C@@]341 (stereo in doubt)",
    "reported-measurement": "−13.3%"
  }
]
